- target: T1, corticotropin releasing factor 2 receptor
- T1 sequence (Q13324 whole entry, species assumed, looked up): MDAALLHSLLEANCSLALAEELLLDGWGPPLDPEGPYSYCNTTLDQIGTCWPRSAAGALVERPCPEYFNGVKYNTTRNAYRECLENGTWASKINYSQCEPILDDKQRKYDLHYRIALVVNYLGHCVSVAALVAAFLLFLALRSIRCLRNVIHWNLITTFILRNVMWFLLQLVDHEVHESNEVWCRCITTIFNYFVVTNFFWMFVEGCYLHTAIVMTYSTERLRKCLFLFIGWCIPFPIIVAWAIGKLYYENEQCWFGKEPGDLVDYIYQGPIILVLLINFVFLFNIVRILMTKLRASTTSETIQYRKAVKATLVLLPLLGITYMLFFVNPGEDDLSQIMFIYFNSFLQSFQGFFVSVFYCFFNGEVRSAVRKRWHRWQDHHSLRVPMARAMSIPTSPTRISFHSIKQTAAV
- measurement notes: cell-based or functional assay
Simple rule here: CRF2R EC50 less than 20 nM is t, otherwise f.

INSERT INTO assay_data (binder, answer_label) VALUES
  ('ZGPPISIDLPYQLLRKVIEIEKQEKEKQQAANNRLLLDTI (C-terminal amide) [SEQ ID NO 283]', 't'),
  ('ZGPPISIDLPHALLRKMIEIEKQEKEKQQAANNRLLLDTI (not fully specified; C-terminal amide) [SEQ ID NO 304]', 't'),
  ('ZGPPISIDLPFQLLRKVIEIEKQEKEKQQAANNAQLLAHI (C-terminal amide) [SEQ ID NO 273]', 'f'),
  ('ZGPPISIDLPIFLLRKVIEIEKQEKEKQQAANNALLLATI (C-terminal amide) [SEQ ID NO 280]', 'f'),
  ('ZGPPISIDLPYHLLRKMIEIEKQEKEKQQAANNALLLDTI (C-terminal amide) [SEQ ID NO 314]', 't'),
  ('ZGPPISIDLPIYLLRKMIEIEKQEKEKQQAANNALLLATI (C-terminal amide) [SEQ ID NO 237]', 'f');
